// provenance: patent US9763996B2

Measured AUC by item
# test description: Toxicokinetics (plasma and urine) in cynomolgus monkeys
# condition details: cynomolgus monkey, in vivo, iv, 36 mg/kg/day, AUCs, plasma, dosed at 36 mg/kg/d, day 7
Where a SMILES comes first, the peptide text is derived from it. Bridges are numbered along the chain shown (N, C = ends). [ ]: non-standard residue; d: D form. The star is where a group is joined. Octanoyl = CCCCCCCC(=O)*; Dab = NCC[C@H](N)C(=O)O; Abu = CC[C@H](N)C(=O)O
Your answer is read as µg·h/mL, so omit the unit and give the number.

CCCCCCCC(=O)N[C@@H](CCN)C(=O)N[C@H](C(=O)N[C@@H](C(=O)N[C@H]1CCNC(=O)[C@H]([C@@H](C)O)NC(=O)[C@H](CCN)NC(=O)[C@H](CC)NC(=O)[C@H](CC(C)C)NC(=O)[C@@H](Cc2ccccc2)NC(=O)[C@H](CCN)NC1=O)[C@H](C)O)[C@@H](C)O [NAB815] (Octanoyl-[Dab]T[dT][Dab][Dab][dF]L[Abu][Dab]T; lactam 4-C): 205

Now look at this one.
Prompt line: Returns the measured AUC for the input compound. Input: CCCCCCCC(=O)N[C@H](C(=O)N[C@H](CO)C(=O)N[C@H]1CCNC(=O)[C@H]([C@@H](C)O)NC(=O)[C@H](CCN)NC(=O)[C@H](CCN)NC(=O)[C@H](CC(C)C)NC(=O)[C@@H](Cc2ccccc2)NC(=O)[C@H](CCN)NC1=O)[C@@H](C)O [NAB739] (Octanoyl-T[dS][Dab][Dab][dF]L[Dab][Dab]T; lactam 3-C)
Response line: 302
